Values from ChEMBL document CHEMBL3885881

species on record: Rattus norvegicus; assay: DrugMatrix - Regimen: Daily Repeat; format: toxicity, organism-based, Sprague-Dawley; parameters: regimen Daily Repeat, gender Male, age 6-8 weeks; conditions: in vivo, po, 0 mg/kg, 72 h, tissue Plasma, route oral GAVAGE, dose level Control, time 3 day, vehicle .5 % CMC

MOLECULE	TOTAL BILIRUBIN [mg/dL]
O=C1c2ccccc2C(=O)C1c1ccccc1	0.48
Cl.NC[C@H]1CC[C@H](C(=O)Oc2ccc(CCC(=O)O)cc2)CC1 [CETRAXATE HYDROCHLORIDE]	0.22
COc1cc(/C=C/C(=O)O)ccc1O [FERULATE]	0.22
CC(=O)Nc1ccc2c(c1)Cc1ccccc1-2	0.18
NC(=O)NC(=O)Cc1ccccc1 [PHENACEMIDE]	0.17
CCN1CCCC1CNC(=O)c1cc(S(N)(=O)=O)ccc1OC (stereo not given) [SULPIRIDE]	0.18
COc1ccc(Cl)cc1C(=O)NCCc1ccc(S(=O)(=O)NC(=O)NC2CCCCC2)cc1 [GLYBURIDE]	0.52
Cc1cc2c(s1)Nc1ccccc1N=C2N1CCN(C)CC1	0.18
CN(C)CCOC(c1ccccc1)c1ccccc1.Cn1c(=O)c2[nH]c(Cl)nc2n(C)c1=O [DIMENHYDRINATE]	0.2
CN(C)CCC=C1c2ccccc2COc2ccccc21 [DOXEPIN]	0.4
CC(C)NCC(O)COc1ccc(CC(N)=O)cc1 (stereo not given)	0.4
CC(C)(C#N)c1cc(Cn2cncn2)cc(C(C)(C)C#N)c1	0.2
NC(=O)CN1CCCC1=O	0.15
CC(C)Cc1ccc([C@H](C)C(=O)O)cc1	0.57
COc1cc(NC(C)CCCN)c2ncccc2c1 (stereo not given)	0.78
NCC(CC(=O)O)c1ccc(Cl)cc1 (stereo not given)	0.18
O=C(O)CCc1nc(-c2ccccc2)c(-c2ccccc2)o1	0.18
CCOc1cc(N)c(Cl)cc1C(=O)NCC1CN(Cc2ccc(F)cc2)CCO1 (stereo not given) [MOSAPRIDE]	0.18
Nc1ccc(C(=O)O)c(O)c1	0.52
CCN1C[C@]2(COC)[C@H](O)C[C@H](OC)[C@@]34[C@@H]5C[C@@]6(O)[C@H](OC(=O)c7ccccc7)[C@@H]5[C@@](OC(C)=O)([C@@H]([C@H](OC)[C@H]23)[C@@H]14)[C@@H](O)[C@@H]6OC	0.48

* * *

species: Rattus norvegicus; test: DrugMatrix - Regimen: Daily Repeat; type: toxicity, organism-based, Sprague-Dawley; set-up: regimen Daily Repeat, gender Male, age 6-8 weeks; details: in vivo, po, 0 mg/kg, 72 h, tissue Plasma, route oral GAVAGE, dose level Control, time 3 day, vehicle 100 % SALINE
Listing: ASPARTATE AMINOTRANSFERASE of selected molecules

MOLECULE	SCALE UNIT	ASPARTATE AMINOTRANSFERASE
CCO	u/L	77.33
CC(CN1c2ccccc2Sc2ccccc21)N(C)C (stereo not given)	u/L	78.83
Cc1ccnc2c1NC(=O)c1cccnc1N2C1CC1	u/L	78.17
O=[As][O-].[Na+] [SODIUM ARSENITE]	u/L	77.33
CCN(CC)N=O	u/L	189.83

* * *

Listing: PHOSPHORUS of selected compounds
organism: Rattus norvegicus; test: DrugMatrix - Regimen: Daily Repeat; assay type: toxicity, organism-based, Sprague-Dawley; parameters: regimen Daily Repeat, gender Male, age 6-8 weeks; conditions: in vivo, po, 0 mg/kg, 72 h, tissue Plasma, route oral GAVAGE, dose level Control, time 3 day, vehicle 100 % WATER

COMPOUND	SCALE UNIT	PHOSPHORUS
C1CCN2C[C@@H]3C[C@@H](CN4CCCC[C@@H]34)[C@H]2C1 [SPARTEINE]	mg/dL	11.95
CCN(CC)C(=S)SSC(=S)N(CC)CC	mg/dL	12.08
NN [HYDRAZINE]	mg/dL	11.48
CCC1(c2ccccc2)C(=O)NC(=O)NC1=O [PHENOBARBITAL]	mg/dL	10.78
Cc1cn([C@H]2C=C[C@@H](CO)O2)c(=O)[nH]c1=O [STAVUDINE]	mg/dL	11.18
CC(Cl)(Cl)Cl [TRICHLOROETHANE]	mg/dL	11.95
Cc1cc(C(C)(C)C)c(O)c(C)c1CC1=NCCN1 [OXYMETAZOLINE]	mg/dL	11.8
C[N+](C)(C)CCOC(N)=O.[Cl-] [CARBACHOL]	mg/dL	11.18
CN1C(=O)OC(C)(C)C1=O [TRIMETHADIONE]	mg/dL	11.42
